Data origin: patent US20260265391A1

- target_of_assay: T1, cynomolgus CD40-Fc protein (cynomolgus, UniProt G7PG38 21-193)
- T1 construct: not shown: Fc part
- test_details: BLI (ForteBio), IgG on AHQ sensor, 100 nM CD40-Fc in solution, bivalent, 1:1 model
pKd: −log10 of the molar value.
metric: pKd

binder	metric	recorded_measurement
ADI-55145 (antibody, human IgG1, kappa, V domains shown) VH: QVQLVESGGGVVQPGRSLRLSCAASGFTFEKYGMHWVRQAPGKGLEWVAVISYEGTSKYYADSVKGRFTISRDNSKNTLYLQMNSLRAEDTAVYYCARDTSRGHDIWGQGTMVTVSS VL: EIVLTQSPGTLSLSPGERATLSCQASQSVSYNYLAWYQQKPGQAPRLLIYGASSRNNGIPDRFSGSGSGTDFTLTISRLEPEDFAVYYCQQYSDYPPFTFGGGTKVEIKR	pKd	9.65
ADI-55144 (antibody, human IgG1, kappa, V domains shown) VH: QVQLVESGGGVVQPGRSLRLSCAASGFTFEKYGMHWVRQAPGKGLEWVAVISYEGTKKYYADSVKGRFTISRDNSKNTLYLQMNSLRAEDTAVYYCARDTSRGHDIWGQGTMVTVSS VL: EIVLTQSPGTLSLSPGERATLSCRASQSVSYSYLAWYQQKPGQAPRLLIYGASSLATGIPDRFSGSGSGTDFTLTISRLEPEDFAVYYCQQYSDYPPFTFGGGTKVEIKR	pKd	9.72
